Values compiled from patent US10300056B2.

This section presents compounds with their documented solubility thermodynamic at 24 h values.
- procedure_text: Thermodynamic solubility profiling
- Format: physicochemical
- recorded_conditions: aqueous buffer, thermodynamic from solid; Sodium Phosphate Buffer pH 6.0, 24 h at rt; read-out: Thermodynamic solubility pH 6
Please report the result as a number followed by the unit.

// known answers, use as guide
compound	measure	assay_value
Cc1cc(C[C@@H](NC(=O)N2CCC(c3cc4ccccc4[nH]c3=O)CC2)C(=O)N[C@@H](CC2CCNCC2)C(=O)N2CCN(c3ccncc3)CC2)cc2cn[nH]c12 [Example 3]	solubility thermodynamic at 24 h	10 µM
O=C(N[C@@H](CC1CCNCC1)C(=O)N1CCN(c2ccncc2)CC1)[C@@H](Cc1cc(Br)c(O)c(Br)c1)NC(=O)N1CCC(c2cc3ccccc3[nH]c2=O)CC1 [Example 5]	solubility thermodynamic at 24 h	9 µM

Below: the item to evaluate.
# input Dear colleague, I am looking for the recorded solubility thermodynamic at 24 h of the following compound: Cc1cc(C[C@@H](NC(=O)N2CCC(n3c(=O)[nH]c4ncccc43)CC2)C(=O)N[C@@H](CC2CCN(CCN(C)C)CC2)C(=O)N2CCN(c3ccncc3)CC2)cc2cn[nH]c12 [Example 12]
# output 1650 µM
